# Target or test system: Adrenergic receptor beta; ADRB1 & ADRB3 (Homo sapiens) (UniProt P08588+P13945)
# Sequence (P08588 whole entry, looked up): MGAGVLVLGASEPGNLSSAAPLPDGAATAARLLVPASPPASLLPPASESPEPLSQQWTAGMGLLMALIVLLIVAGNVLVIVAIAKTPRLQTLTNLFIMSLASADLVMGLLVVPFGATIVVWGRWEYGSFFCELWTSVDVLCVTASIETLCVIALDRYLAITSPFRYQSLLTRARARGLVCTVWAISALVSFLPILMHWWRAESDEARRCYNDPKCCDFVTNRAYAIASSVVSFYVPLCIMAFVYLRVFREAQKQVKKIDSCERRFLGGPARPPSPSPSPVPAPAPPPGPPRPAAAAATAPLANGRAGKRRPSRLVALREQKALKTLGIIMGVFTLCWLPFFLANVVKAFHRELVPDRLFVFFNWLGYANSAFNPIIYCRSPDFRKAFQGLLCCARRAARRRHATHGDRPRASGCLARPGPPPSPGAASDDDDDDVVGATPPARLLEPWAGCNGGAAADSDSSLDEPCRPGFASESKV
# Sequence (P13945 whole entry, looked up): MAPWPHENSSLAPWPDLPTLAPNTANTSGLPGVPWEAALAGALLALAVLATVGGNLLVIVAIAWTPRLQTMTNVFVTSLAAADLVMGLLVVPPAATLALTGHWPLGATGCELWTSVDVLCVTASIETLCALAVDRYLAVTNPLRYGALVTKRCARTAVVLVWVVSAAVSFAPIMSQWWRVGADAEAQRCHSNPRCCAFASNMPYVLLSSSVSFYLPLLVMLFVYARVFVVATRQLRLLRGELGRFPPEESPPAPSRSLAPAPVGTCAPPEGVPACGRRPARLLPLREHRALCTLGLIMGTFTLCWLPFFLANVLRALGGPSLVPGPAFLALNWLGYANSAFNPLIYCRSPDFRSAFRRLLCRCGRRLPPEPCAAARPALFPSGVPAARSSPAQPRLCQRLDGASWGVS
# Assay comment: Selectivity measured as the ratio of Ki of Beta-1 Adrenergic receptor to the Ki of Beta-3 Adrenergic receptor
# Assay type: protein assay
Decide using Selectivity alone. Strictly below 4: 1. Equal to or above 4: 0.

Example entries begin here.
{"columns": ["Molecule", "Answer label"],
 "data": [
  ["CS(=O)(=O)Nc1cc(C(O)CNCCc2ccc(OCC(=O)O)cc2)ccc1O (stereo not given)", 1],
  ["CCC(C)(C)NCC(O)c1ccc(O)c(NS(C)(=O)=O)c1 (stereo not given)", 1],
  ["CS(=O)(=O)Nc1cc(C(O)CNC(CCCCC(=O)O)Cc2ccccc2)ccc1O (stereo not given)", 1]
]}

Exercise: Problem: For the molecule CS(=O)(=O)Nc1cc([C@@H](O)CNC(c2ccccc2)c2ccccc2)ccc1O , is Selectivity under 4?
Solution: 0

Exercise: Just wondering, is Selectivity of CS(=O)(=O)Nc1cc(C(O)CNC(CCCCCO)Cc2ccccc2)ccc1O (stereo not given) below 4?
Solution: 0

Exercise: Given COCc1ccc(C(NC[C@H](O)c2ccc(O)c(NS(C)(=O)=O)c2)c2ccc(COC)cc2)cc1 , is recorded Selectivity strictly lower than 4?
Solution: 0

----------
# Target or test system: Beta-2 adrenergic receptor and beta-3 adrenergic receptor (Homo sapiens) (UniProt P07550+P13945)
# Assay comment: Selectivity as the ratio of Ki of beta-2 adrenergic receptor to the Ki of beta-3 adrenergic receptor.
# Type: protein assay
Observation type: Selectivity
In your answer, state the number alone without any accompanying words.

Some compounds with known Selectivity results, for comparison:
{"columns": ["Compound", "Endpoint value"],
 "data": [
  ["Cc1ccc(C(Cc2ccccc2)NCC(O)c2ccc(O)c(NS(C)(=O)=O)c2)cc1C (centres undefined)", 3],
  ["CS(=O)(=O)Nc1cc(C(O)CNC(Cc2ccccc2)c2ccc(Cl)c(Cl)c2)ccc1O (centres undefined)", 1],
  ["CCC(C)(C)NCC(O)c1ccc(O)c(NS(C)(=O)=O)c1 (centres undefined)", 0.03]
]}

Exercise: Looking for the measured Selectivity of COc1ccc(C(C)(NC[C@H](O)c2ccc(O)c(NS(C)(=O)=O)c2)c2ccc(OC)cc2)cc1 , can you help?
Solution: 8

Exercise: Look at this compound and give its reported Selectivity. CS(=O)(=O)Nc1cc(C(O)CNCc2ccccc2)ccc1O (centres undefined)
Solution: 0.25

Exercise: So what's the measured Selectivity for this one? CS(=O)(=O)Nc1cc(C(O)CNC23CC4CC(CC(C4)C2)C3)ccc1O (centres undefined)
Solution: 0.04

Exercise: Can you share its Selectivity? I mean this compound: COc1ccc([C@@H](Cc2ccccc2)NC[C@H](O)c2ccc(O)c(NS(C)(=O)=O)c2)cc1OC
Solution: 6

Exercise: Given CC(NC[C@H](O)c1ccc(O)c(NS(C)(=O)=O)c1)(c1ccc(OC(F)F)cc1)c1ccc(OC(F)F)cc1 , state its recorded Selectivity.
Solution: 2

Exercise: Quick one: Selectivity of CS(=O)(=O)Nc1cc(C(O)CNCCc2ccc(OCC(=O)O)cc2)ccc1O (centres undefined) ?
Solution: 0.06

----------
As shown below, each of these molecules has a reported Intrinsic activity value.
# Target or test system: UniProt P13945
# Assay comment: Human beta-3 adrenergic receptor agonist activity by measurement of cAMP accumulation levels in CHO membranes expressing human beta-3 receptor.
# Assay type: functional, cell membranes
State just the number; it will be interpreted in %.

{"columns": ["Molecule", "Target or test system", "Reading unit", "Intrinsic activity"],
 "data": [
  ["COc1ccc(C(C)(NC[C@H](O)c2ccc(O)c(NS(C)(=O)=O)c2)c2ccc(OC)cc2)cc1", "UniProt P13945", "%", 79],
  ["Cc1ccc(C(Cc2ccccc2)NCC(O)c2ccc(O)c(NS(C)(=O)=O)c2)cc1C (stereo not given)", "UniProt P13945", "%", 79]
]}

Exercise: I am curious: what Intrinsic activity value has been reported for CS(=O)(=O)Nc1cc(C(O)CNCCc2ccccc2)ccc1O (stereo not given) ?
Solution: 91

Exercise: Recorded Intrinsic activity of COc1ccc(C(Cc2ccccc2)NCC(O)c2ccc(O)c(NS(C)(=O)=O)c2)cc1OC (stereo not given) , please.
Solution: 105

Exercise: Tell me the measured Intrinsic activity of CC(=O)Nc1ccc(C(NC[C@H](O)c2ccc(O)c(NS(C)(=O)=O)c2)c2ccc(NC(C)=O)cc2)cc1 , please.
Solution: 96

----------
# maps each entry to its Selectivity
# Target or test system: Adrenergic receptor beta; ADRB1 & ADRB3 (Homo sapiens) (UniProt P08588+P13945)
# Assay comment: Selectivity measured as the ratio of Ki of Beta-1 Adrenergic receptor to the Ki of Beta-3 Adrenergic receptor
# Assay type: protein assay
Field format: numeric only.

Field: example entries. Status: answers known.
{"columns": ["Compound", "Selectivity"],
 "data": [
  ["COc1ccc(C(Cc2ccccc2)NCC(O)c2ccc(O)c(NS(C)(=O)=O)c2)c(OC)c1 (centres undefined)", 37],
  ["COc1ccc(CNCC(O)c2ccc(O)c(NS(C)(=O)=O)c2)cc1 (centres undefined)", 22],
  ["Cc1ccc(C(Cc2ccccc2)NCC(O)c2ccc(O)c(NS(C)(=O)=O)c2)cc1C (centres undefined)", 43],
  ["COc1ccc(C(Cc2ccccc2)NCC(O)c2ccc(O)c(NS(C)(=O)=O)c2)cc1OC (centres undefined)", 69],
  ["COc1ccc([C@H](Cc2ccccc2)NC[C@H](O)c2ccc(O)c(NS(C)(=O)=O)c2)cc1OC", 63],
  ["CS(=O)(=O)Nc1cc(C(O)CNCc2ccccc2)ccc1O (centres undefined)", 2]
]}

In the following, a different compound is considered.
Exercise: Reported Selectivity for Adrenergic receptor beta; ADRB1 & ADRB3 (Homo sapiens) (UniProt P08588+P13945), given COC(=O)COc1ccc(CCNCC(O)c2ccc(O)c(NS(C)(=O)=O)c2)cc1 (centres undefined) ?
Solution: 0.7

----------
# Target or test system: Adrenergic receptor beta; ADRB1 & ADRB3 (Homo sapiens) (UniProt P08588+P13945)
# Assay comment: Selectivity measured as the ratio of Ki of Beta-1 Adrenergic receptor to the Ki of Beta-3 Adrenergic receptor
# Type: protein assay
Observation type: Selectivity
Kindly provide the number alone.

# example entries with known answers
{"columns": ["Molecule", "Observation type", "Endpoint value"],
 "data": [
  ["CS(=O)(=O)Nc1cc([C@@H](O)CNC(c2ccc(F)cc2)c2ccc(F)cc2)ccc1O", "Selectivity", 3],
  ["CS(=O)(=O)Nc1cc([C@@H](O)CNC(c2ccc(OC(F)F)cc2)c2ccc(OC(F)F)cc2)ccc1O", "Selectivity", 8],
  ["COc1cccc(C(Cc2ccccc2)NCC(O)c2ccc(O)c(NS(C)(=O)=O)c2)c1 (configuration not stated)", "Selectivity", 16],
  ["CC(NC[C@H](O)c1ccc(O)c(NS(C)(=O)=O)c1)(c1ccc(OC(F)F)cc1)c1ccc(OC(F)F)cc1", "Selectivity", 2]
]}

Exercise: What value of measured Selectivity is listed for CS(=O)(=O)Nc1cc(C(O)CNC23CC4CC(CC(C4)C2)C3)ccc1O (configuration not stated) ?
Solution: 15

Exercise: Entry COc1ccc(CCNCC(O)c2ccc(O)c(NS(C)(=O)=O)c2)cc1 (configuration not stated) has what Selectivity?
Solution: 4

----------
# Target or test system: Adrenergic receptor beta; ADRB1 & ADRB3 (Homo sapiens) (UniProt P08588+P13945)
# Assay comment: Selectivity measured as the ratio of Ki of Beta-1 Adrenergic receptor to the Ki of Beta-3 Adrenergic receptor
# Type: protein assay
Observation type: Selectivity
Give the figure by itself; no unit, no explanation.

Solved cases below.
{"columns": ["Compound", "Target or test system", "Selectivity"],
 "data": [
  ["COc1ccc([C@@H](Cc2ccccc2)NC[C@H](O)c2ccc(O)c(NS(C)(=O)=O)c2)cc1OC", "Adrenergic receptor beta; ADRB1 & ADRB3 (Homo sapiens) (UniProt P08588+P13945)", 63],
  ["CS(=O)(=O)Nc1cc(C(O)CNC(Cc2ccccc2)Cc2ccccc2)ccc1O (stereo unspecified)", "Adrenergic receptor beta; ADRB1 & ADRB3 (Homo sapiens) (UniProt P08588+P13945)", 6],
  ["CS(=O)(=O)Nc1cc(C(O)CNCCc2ccccc2)ccc1O (stereo unspecified)", "Adrenergic receptor beta; ADRB1 & ADRB3 (Homo sapiens) (UniProt P08588+P13945)", 2],
  ["COc1ccc(C(NC[C@H](O)c2ccc(O)c(NS(C)(=O)=O)c2)(C(N)=O)c2ccc(OC)cc2)cc1", "Adrenergic receptor beta; ADRB1 & ADRB3 (Homo sapiens) (UniProt P08588+P13945)", 3],
  ["CS(=O)(=O)Nc1cc(C(O)CN)ccc1O (stereo unspecified)", "Adrenergic receptor beta; ADRB1 & ADRB3 (Homo sapiens) (UniProt P08588+P13945)", 0.6]
]}

Now look at this one.
Exercise: Given the entry CC(C)NCC(O)c1ccc(O)c(NS(C)(=O)=O)c1 (stereo unspecified) , what Selectivity was observed with Adrenergic receptor beta; ADRB1 & ADRB3 (Homo sapiens) (UniProt P08588+P13945)?
Solution: 2
